Target: hERG (Homo sapiens, UniProt Q12809)
Construct: stably transfected with full length hERG cDNA; expressed in transfected cells; host or cells: HEK293
Sequence (Q12809 whole entry): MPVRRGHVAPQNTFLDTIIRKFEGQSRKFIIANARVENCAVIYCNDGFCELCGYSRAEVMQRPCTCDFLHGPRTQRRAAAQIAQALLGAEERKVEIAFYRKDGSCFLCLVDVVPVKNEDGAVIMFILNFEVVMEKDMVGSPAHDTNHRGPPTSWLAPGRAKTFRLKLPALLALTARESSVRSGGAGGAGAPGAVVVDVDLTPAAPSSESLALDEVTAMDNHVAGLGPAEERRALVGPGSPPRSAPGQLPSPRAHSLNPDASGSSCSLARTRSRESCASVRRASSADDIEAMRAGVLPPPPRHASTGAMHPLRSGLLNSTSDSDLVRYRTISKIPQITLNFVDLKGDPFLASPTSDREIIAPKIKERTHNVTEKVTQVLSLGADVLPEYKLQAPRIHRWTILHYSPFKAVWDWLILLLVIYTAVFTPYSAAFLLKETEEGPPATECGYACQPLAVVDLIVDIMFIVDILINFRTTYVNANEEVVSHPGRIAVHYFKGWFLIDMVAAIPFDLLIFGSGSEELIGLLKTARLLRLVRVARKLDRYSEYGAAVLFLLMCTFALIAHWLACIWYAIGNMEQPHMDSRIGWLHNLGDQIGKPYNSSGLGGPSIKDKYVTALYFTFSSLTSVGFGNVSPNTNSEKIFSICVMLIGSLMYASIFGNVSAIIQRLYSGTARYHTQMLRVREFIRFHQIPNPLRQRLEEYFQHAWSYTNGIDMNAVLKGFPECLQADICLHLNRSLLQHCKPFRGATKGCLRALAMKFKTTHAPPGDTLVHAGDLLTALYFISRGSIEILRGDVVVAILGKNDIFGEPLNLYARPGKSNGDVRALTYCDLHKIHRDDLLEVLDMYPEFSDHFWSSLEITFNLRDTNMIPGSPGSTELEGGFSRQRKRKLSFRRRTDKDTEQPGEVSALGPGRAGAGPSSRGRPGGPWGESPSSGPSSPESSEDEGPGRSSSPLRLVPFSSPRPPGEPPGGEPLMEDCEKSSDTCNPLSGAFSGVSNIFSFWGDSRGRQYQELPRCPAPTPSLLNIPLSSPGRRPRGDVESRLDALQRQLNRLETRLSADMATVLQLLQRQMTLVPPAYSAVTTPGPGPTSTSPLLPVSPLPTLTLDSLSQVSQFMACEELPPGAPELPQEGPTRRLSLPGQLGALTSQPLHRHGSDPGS
Assay: hERG in-vitro assay, IonWorks Barracuda population patch clamp
Assay type: cell-based
Conditions: hERG/HEK293 cells; hERG current block, 5 minutes exposure
Method: Stock solutions of compounds of the invention and positive control (cisapride; 0.001-3 μM) were prepared in DMSO. Stock solutions were diluted in a HEPES-buffered physiological saline solution. Test and control solutions contained 0.3% DMSO. […] The test article effects were evaluated using IonWorks Barracuda™ systems (Molecular Devices Corporation, Union City, CA). […]
pIC50: −log10 of the molar value.
Where pIC50 equals or exceeds 5, the correct label is y; where it does not, the label is n.

Cc1c[nH]c(C2CCN(C(=O)c3ccc(-c4ccc(F)cc4)cc3)CC2)n1 [CA-6, reference compound] | y
O=C(c1ccc2c(-c3c[nH]c4ccccc34)c[nH]c2c1)N1CCC(c2ncc[nH]2)CC1 [Example 29] | n

Request: Textbook exercise: given the entry N#Cc1ccc(-c2ccc(C(=O)N3CCC(c4ncc[nH]4)CC3)cc2)cc1 [CA-5, reference compound] , state whether its pIC50 is greater than or equal to 5.
Result: y

Request: Textbook exercise: given the entry Cc1cnc(C2CCN(C(=O)c3ccc(-c4ccc(C(F)(F)F)cc4)cc3)CC2)[nH]1 [Example 4] , state whether its pIC50 is greater than or equal to 5.
Result: y

Request: Textbook exercise: given the entry O=C(c1ccc(-c2cccc(C(F)(F)F)c2)cc1)N1CCC(c2ncc[nH]2)CC1 [Example 19] , state whether its pIC50 is greater than or equal to 5.
Result: y
